- testDetails: Ratio of permeability from basal to apical side of MDCK2 cells expressing MDR1 in absence of LSN 335984 to permeability from basal to apical side of MDCK2 cells expressing MDR1 in presence of LSN 335984
- Type: ADME, cell-based, Canis lupus familiaris
- conditionSummary: dog, mdck-ii
readoutKind: Ratio
One number for each entry.

Consider the following illustrative entries.
CCN(CC)C(=O)c1ccc(-c2c3ccc(=[N+](C)C)cc-3sc3c4c5c(cc23)CCCN5CCC4)s1.F[P-](F)(F)(F)(F)F 12
CCN(CC)C(=S)c1ccc(-c2c3ccc(=[N+](C)C)cc-3sc3cc(N(C)C)ccc23)s1.F[P-](F)(F)(F)(F)F 41
CCN(CC)C(=S)c1ccc(-c2c3ccc(=[N+](C)C)cc-3sc3c4c5c(cc23)CCCN5CCC4)s1.F[P-](F)(F)(F)(F)F 24
CCN(CC)C(=S)c1ccc(-c2c3ccc(=[N+](C)C)cc-3sc3cc4c(cc23)C(C)(C)CCN4C)s1.F[P-](F)(F)(F)(F)F 69
CCN(CC)C(=O)c1ccc(-c2c3ccc(=[N+](C)C)cc-3sc3cc4c(cc23)C(C)(C)CCN4C)s1.F[P-](F)(F)(F)(F)F 14
CN1CCC(C)(C)c2cc3c(-c4ccc(C(=O)N5CCCCC5)s4)c4ccc(=[N+](C)C)cc-4sc3cc21.F[P-](F)(F)(F)(F)F 31
C[N+](C)=c1ccc2c(-c3ccc(C(=O)N4CCCCC4)s3)c3cc4c5c(c3sc-2c1)CCCN5CCC4.F[P-](F)(F)(F)(F)F 27

Look up Ratio: CN1CCC(C)(C)c2cc3c(-c4ccc(C(=S)N5CCCCC5)s4)c4ccc(=[N+](C)C)cc-4sc3cc21.F[P-](F)(F)(F)(F)F
170

* * *

- measuredTarget: ATP-dependent translocase ABCB1 (Homo sapiens, UniProt P08183)
- Sequence (P08183 whole entry): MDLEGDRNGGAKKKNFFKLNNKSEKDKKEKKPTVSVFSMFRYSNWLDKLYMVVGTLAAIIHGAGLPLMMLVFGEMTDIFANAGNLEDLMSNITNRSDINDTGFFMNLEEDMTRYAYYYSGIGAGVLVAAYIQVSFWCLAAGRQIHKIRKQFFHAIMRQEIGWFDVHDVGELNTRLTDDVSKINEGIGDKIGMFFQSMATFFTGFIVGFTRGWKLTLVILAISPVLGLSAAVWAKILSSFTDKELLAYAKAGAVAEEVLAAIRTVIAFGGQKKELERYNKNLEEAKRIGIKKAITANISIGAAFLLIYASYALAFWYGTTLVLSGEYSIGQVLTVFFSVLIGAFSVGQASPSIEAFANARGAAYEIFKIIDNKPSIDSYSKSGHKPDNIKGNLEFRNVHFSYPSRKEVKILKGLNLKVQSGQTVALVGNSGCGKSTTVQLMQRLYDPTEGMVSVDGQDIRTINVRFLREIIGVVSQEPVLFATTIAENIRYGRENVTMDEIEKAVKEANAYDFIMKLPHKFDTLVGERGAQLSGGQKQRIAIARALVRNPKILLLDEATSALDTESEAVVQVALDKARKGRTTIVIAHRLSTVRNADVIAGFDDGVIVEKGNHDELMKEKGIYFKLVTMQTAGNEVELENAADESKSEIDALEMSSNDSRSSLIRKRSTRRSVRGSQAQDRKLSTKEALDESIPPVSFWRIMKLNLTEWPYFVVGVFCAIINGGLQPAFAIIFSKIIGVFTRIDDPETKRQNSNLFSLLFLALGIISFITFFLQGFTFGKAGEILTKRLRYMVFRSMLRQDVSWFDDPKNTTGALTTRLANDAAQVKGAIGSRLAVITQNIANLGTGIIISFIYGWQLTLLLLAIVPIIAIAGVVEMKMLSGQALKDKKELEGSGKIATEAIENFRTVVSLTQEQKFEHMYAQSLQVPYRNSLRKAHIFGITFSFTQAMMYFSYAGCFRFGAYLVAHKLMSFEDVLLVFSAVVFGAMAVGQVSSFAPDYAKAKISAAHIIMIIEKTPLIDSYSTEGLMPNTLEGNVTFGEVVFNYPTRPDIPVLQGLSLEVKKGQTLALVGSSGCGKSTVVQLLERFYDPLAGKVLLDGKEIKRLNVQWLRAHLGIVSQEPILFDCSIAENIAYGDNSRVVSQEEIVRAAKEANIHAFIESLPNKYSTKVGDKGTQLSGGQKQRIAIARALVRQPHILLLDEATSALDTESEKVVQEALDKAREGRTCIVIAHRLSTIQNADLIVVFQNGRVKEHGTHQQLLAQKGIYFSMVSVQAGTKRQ
- testDetails: Inhibition of human His10-tagged P-gp ATPase activity expressed in BHK cells assessed as verapamil-induced inorganic phosphate release incubated for 15 mins prior to verapamil addition by spectrophotometric analysis
- Type: cell-based
readoutKind: IC50 (µM)
Numbers only, in µM.

CN1CCC(C)(C)c2cc3c(-c4ccc(C(=S)N5CCCCC5)s4)c4ccc(=[N+](C)C)cc-4sc3cc21.F[P-](F)(F)(F)(F)F 1.7

API: the following record is the query input.
Find the recorded IC50 belonging to CN1CCC(C)(C)c2cc3c(-c4ccc(C(=O)N5CCCCC5)s4)c4ccc(=[N+](C)C)cc-4sc3cc21.F[P-](F)(F)(F)(F)F and report it.
1.1

* * *

- testDetails: n-Octanol-water partition coefficient, log P of the compound at pH 7.4 by shake flask method
- Format: physicochemical
For each entry below, report its logD value.

Guide cases for logD, answers given:
C[N+](C)=c1ccc2c(-c3ccc(C(=O)N4CCCCC4)s3)c3cc4c5c(c3sc-2c1)CCCN5CCC4.F[P-](F)(F)(F)(F)F 1.4
CCN(CC)C(=S)c1ccc(-c2c3ccc(=[N+](C)C)cc-3sc3cc4c(cc23)C(C)(C)CCN4C)s1.F[P-](F)(F)(F)(F)F 2.7
CCN(CC)C(=O)c1ccc(-c2c3ccc(=[N+](C)C)cc-3sc3c4c5c(cc23)CCCN5CCC4)s1.F[P-](F)(F)(F)(F)F 1.9
CCN(CC)C(=S)c1ccc(-c2c3ccc(=[N+](C)C)cc-3sc3cc(N(C)C)ccc23)s1.F[P-](F)(F)(F)(F)F 1.2

--- query ---
For CCN(CC)C(=O)c1ccc(-c2c3ccc(=[N+](C)C)cc-3sc3cc4c(cc23)C(C)(C)CCN4C)s1.F[P-](F)(F)(F)(F)F , what is its reported logD?
1.4

Each recorded value in this set is attributed to ChEMBL document CHEMBL2203082.
